# target_desc: Thymidylate synthase (Lactobacillus casei, UniProt P00469)
# Sequence (P00469 whole entry): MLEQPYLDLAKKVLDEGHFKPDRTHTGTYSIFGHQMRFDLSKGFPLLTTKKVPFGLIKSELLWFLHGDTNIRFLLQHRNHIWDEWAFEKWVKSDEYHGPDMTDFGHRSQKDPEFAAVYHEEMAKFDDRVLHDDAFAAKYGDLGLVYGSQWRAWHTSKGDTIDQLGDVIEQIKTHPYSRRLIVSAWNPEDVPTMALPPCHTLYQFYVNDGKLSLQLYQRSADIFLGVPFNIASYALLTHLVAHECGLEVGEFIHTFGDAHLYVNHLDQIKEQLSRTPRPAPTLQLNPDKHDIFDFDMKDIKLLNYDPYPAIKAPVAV
IC50 values by entry

- Nc1nc(N)c2c(n1)CCC1CC(c3ccc(C(=O)NC(CCC(=O)O)C(=O)O)cc3)CN21 (configuration not stated): > 500 µM

// next entry
Notebook: Nc1nc(N)c2c(n1)CCC1CC(c3ccc(C(=O)NC(CCC(=O)O)C(=O)O)cc3)C(=O)N21 (configuration not stated) , IC50 read as > 200 µM

###

# System: L1210
# protocol_description: Compound was evaluated for growth inhibition in L1210 murine leukemia cells
# Type: functional, cell-based
# condition: Mus musculus
IC50 values by entry
Respond numerically; units are nM and should not be typed.

• Nc1nc(N)c2c(n1)CCC1CC(c3ccc(C(=O)NC(CCC(=O)O)C(=O)O)cc3)CN21 (stereo not drawn) = 250

// next entry
Notebook: CN(Cc1cnc2nc(N)nc(N)c2n1)c1ccc(C(=O)N[C@@H](CCC(=O)O)C(=O)O)cc1 [METHOTREXATE] , IC50 read as 2.5
